System: DOHH2 cells
METHOD DESCRIPTION: Cell proliferation inhibition in vitro, DOHH2 cells by CTG assay
Format: cell-based
TEST CONTEXT: Homo sapiens, DOHH-2, 72 hours, read-out: Inhibitions of cell activities IC50 (nM) DOHH2
ASSAY METRIC: IC50 (nM)

[[record]]
compound = "C=CC(=O)N1CC2CCCC2C1c1nc(-c2ccc(C(=O)Nc3cc(C(F)(F)F)ccn3)cc2)c2c(N)nccn12 (stereo not shown) [Example 42]"
comparison_symbol = "="
value = 104

[[record]]
compound = "CC#CC(=O)N1C[C@H]2[C@@H](C1c1nc(-c3ccc(C(=O)Nc4cc(C(F)(F)F)ccn4)cc3)c3c(N)nccn13)C2(C)C (stereo partly shown) [Example 45]"
comparison_symbol = "="
value = 285

[[record]]
compound = "C=CC(=O)N1C2CC[C@@H](C2)C1c1nc(-c2ccc(C(C)(O)c3ccccc3)cc2)c2c(N)nccn12 (stereo partly shown) [Example 79]"
comparison_symbol = "="
value = 164

[[record]]
compound = "CC#CC(=O)N1C2C[C@@H](C1c1nc(-c3ccc(C(C)(O)c4ccccc4)cc3)c3c(N)nccn13)N(C(C)C)C2 (stereo partly shown) [Example 91]"
comparison_symbol = ">"
value = 1000

[[record]]
compound = "C=CC(=O)N1C[C@H]2[C@@H]([C@H]1c1nc(-c3ccc(C(=O)Nc4cc(Cl)ccn4)cc3)c3c(N)nccn13)C2(C)C [Example 69]"
comparison_symbol = "="
value = 124

[[record]]
compound = "C=CC(=O)N1C[C@H]2[C@@H](C1c1nc(-c3ccc(C(=O)Nc4cc(C(F)(F)F)ccn4)cc3)c3c(N)nccn13)C2(C)C (stereo partly shown) [Example 44]"
comparison_symbol = "="
value = 717

[[record]]
compound = "CC#CC(=O)N1CC2CCCC2C1c1nc(-c2ccc(C(=O)Nc3ccccn3)cc2)c2c(N)nccn12 (stereo not shown) [Example 4]"
comparison_symbol = "="
value = 673


---

METHOD DESCRIPTION: Pharmacokinetic test in SD rats (oral 10 mg/kg, intravenous 1 mg/kg)
Type: in vivo
TEST CONTEXT: male, plasma; SD rat, oral 10 mg/kg
The entries below are paired with their reported AUC.
ASSAY METRIC: AUC (ng·h/mL)

[[record]]
compound = "C=CC(=O)N1CCC[C@@H](n2nc(-c3ccc(Oc4ccccc4)cc3)c3c(N)ncnc32)C1 [Ibrutinib, reference compound]"
value = 218

[[record]]
compound = "C=CC(=O)N1CC2CCCC2C1c1nc(-c2ccc(C(=O)Nc3ccccn3)cc2)c2c(N)nccn12 (stereo not shown) [Example 3]"
value = 1490

[[record]]
compound = "C=CC(=O)N1CC2CCCC2C1c1nc(-c2ccc(Oc3ccccc3)cc2)c2c(N)nccn12 (stereo not shown) [Example 96]"
value = 1580

[[record]]
compound = "C=CC(=O)N1C2CC[C@@H](C2)C1c1nc(-c2ccc(C(C)(O)c3ccccc3)cc2)c2c(N)nccn12 (stereo partly shown) [Example 79]"
value = 770


---

METHOD DESCRIPTION: Pharmacokinetic test in SD rats (oral 10 mg/kg, intravenous 1 mg/kg)
Assay type: in vivo
TEST CONTEXT: male, plasma; SD rat, oral 10 mg/kg
Protocol: SD rat, male (purchased from Shanghai Sippr-Bk Laboratory Animal Co., Ltd.), each tested compound was administered at a single dose to SD rats by oral administration (10 mg/kg, 3 rats in each group) and intravenous administration (1 mg/kg, 3 rats in each group) for the pharmacokinetic study. […] 200 μL of supernatant was taken and added to a 96-well sample plate and the samples were analyzed by LC-MS/MS.
Kind request: treat 300 ng/mL as inclusive, so Cmax at 300 ng/mL or higher is Fulfilled, anything lower is Not fulfilled.

[[record]]
compound = "CC#CC(=O)N1C2CC[C@@H](C2)C1c1nc(-c2ccc(C(=O)Nc3cc(C(F)(F)F)ccn3)cc2)c2c(N)nccn12 (stereo partly drawn) [Example 47]"
group_label = "Fulfilled"

[[record]]
compound = "C=CC(=O)N1CCC[C@@H](n2nc(-c3ccc(Oc4ccccc4)cc3)c3c(N)ncnc32)C1 [Ibrutinib, reference compound]"
group_label = "Not fulfilled"

[[record]]
compound = "C=CC(=O)N1C2CCC1(c1nc(-c3ccc(C(=O)Nc4ccccn4)cc3)c3c(N)nccn13)COC2 (stereo not drawn) [Example 11]"
group_label = "Fulfilled"

[[record]]
compound = "C=CC(=O)N1C2CC[C@@H](C2)C1c1nc(-c2ccc(C(C)(O)c3ccccc3)cc2)c2c(N)nccn12 (stereo partly drawn) [Example 79]"
group_label = "Fulfilled"

[[record]]
compound = "C=CC(=O)N1CC2CCCC2C1c1nc(-c2ccc(Oc3ccccc3)cc2)c2c(N)nccn12 (stereo not drawn) [Example 96]"
group_label = "Fulfilled"

[[record]]
compound = "C=CC(=O)N1CC2CCCC2C1c1nc(-c2ccc(C(=O)Nc3ccccn3)cc2)c2c(N)nccn12 (stereo not drawn) [Example 3]"
group_label = "Fulfilled"

[[record]]
compound = "CC#CC(=O)N1CCC[C@H]1c1nc(-c2ccc(C(=O)Nc3ccccn3)cc2)c2c(N)nccn12 [ACP-196, reference compound]"
group_label = "Not fulfilled"

[[record]]
compound = "C=CC(=O)N1[C@@H]2CC[C@@H](C2)[C@H]1c1nc(-c2ccc(C(=O)Nc3ccccn3)cc2)c2c(N)nccn12 [Example 22]"
group_label = "Fulfilled"


---

The following compounds have recorded IC50 on UniProt Q06187.
Sequence (Q06187 whole entry): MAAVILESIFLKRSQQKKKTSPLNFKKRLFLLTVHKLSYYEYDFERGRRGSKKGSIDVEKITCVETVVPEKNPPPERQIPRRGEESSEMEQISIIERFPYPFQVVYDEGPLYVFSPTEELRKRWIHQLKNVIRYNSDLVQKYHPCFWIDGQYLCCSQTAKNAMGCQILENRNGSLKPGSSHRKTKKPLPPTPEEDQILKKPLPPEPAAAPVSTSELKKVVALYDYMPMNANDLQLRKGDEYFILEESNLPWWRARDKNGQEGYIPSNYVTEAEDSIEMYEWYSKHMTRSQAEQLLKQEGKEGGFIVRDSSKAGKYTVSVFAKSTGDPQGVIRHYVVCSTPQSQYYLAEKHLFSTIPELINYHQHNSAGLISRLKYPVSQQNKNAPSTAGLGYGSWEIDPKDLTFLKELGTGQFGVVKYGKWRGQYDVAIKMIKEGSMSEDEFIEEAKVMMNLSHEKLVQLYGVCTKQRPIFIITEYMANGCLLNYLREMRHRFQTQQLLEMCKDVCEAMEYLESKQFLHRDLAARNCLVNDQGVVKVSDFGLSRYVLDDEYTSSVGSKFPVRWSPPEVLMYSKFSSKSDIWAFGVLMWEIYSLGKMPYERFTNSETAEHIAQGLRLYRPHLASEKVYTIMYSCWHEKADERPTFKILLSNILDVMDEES
ASSAY METRIC: IC50 (nM)

[[record]]
compound = "CC#CC(=O)N1C2CN[C@@H](C2)C1c1nc(-c2ccc(Oc3ccccc3)cc2)c2c(N)nccn12 (some centres unmarked) [Example 107]"
value = 41

[[record]]
compound = "CC#CC(=O)N1[C@H]2CC[C@@H]1[C@@H](c1nc(-c3ccc(C(=O)Nc4ccccn4)cc3)c3c(N)nccn13)C2 [Example 119]"
value = 43

[[record]]
compound = "C=CC(=O)N1C(c2nc(-c3ccc(C(=O)Nc4ccccn4)cc3)c3c(N)nccn23)CC2CC21 (centres unmarked) [Example 24]"
value = 176

[[record]]
compound = "C=CC(=O)N1C2CC[C@@H](C2)C1c1nc(-c2ccc(C(=O)Nc3cc(C(F)(F)F)ccn3)cc2)c2c(N)nccn12 (some centres unmarked) [Example 46]"
value = 4.2

[[record]]
compound = "C=CC(=O)N1CC2(CC2)C[C@H]1c1nc(-c2ccc(C(C)(O)c3ccccc3)cc2)c2c(N)nccn12 (some centres unmarked) [Example 74]"
value = 24

[[record]]
compound = "CC#CC(=O)N1CC2CC1(c1nc(-c3ccc(C(=O)Nc4ccccn4)cc3)c3c(N)nccn13)CO2 (centres unmarked) [Example 10]"
value = 72

[[record]]
compound = "CC#CC(=O)N1CC2CCC1(c1nc(-c3ccc(C(=O)Nc4ccccn4)cc3)c3c(N)nccn13)CC2 [Example 121]"
value = 43

[[record]]
compound = "C=CC(=O)N1C2C[C@@H](C1c1nc(-c3ccc(C(=O)Nc4cc(C(F)(F)F)ccn4)cc3)c3c(N)nccn13)N(C(C)=O)C2 (some centres unmarked) [Example 56]"
value = 4.3

[[record]]
compound = "CC#CC(=O)N1CCC2(CC2c2nc(-c3ccc(C(=O)Nc4ccccn4)cc3)c3c(N)nccn23)C1 (centres unmarked) [Example 31]"
value = 736

[[record]]
compound = "C=CC(=O)N1C2CN[C@@H](C2)C1c1nc(-c2ccc(C(=O)Nc3cc(C(F)(F)F)ccn3)cc2)c2c(N)nccn12 (some centres unmarked) [Example 52]"
value = 2.4

[[record]]
compound = "CC#CC(=O)N1C[C@@H]2C[C@]1(c1nc(-c3ccc(C(=O)Nc4ccccn4)cc3)c3c(N)nccn13)CCO2 [Example 8]"
value = 197

[[record]]
compound = "C=CC(=O)N1C2CCC1(c1nc(-c3ccc(C(=O)Nc4cc(C(F)(F)F)ccn4)cc3)c3c(N)nccn13)COC2 (centres unmarked) [Example 48]"
value = 2.1

[[record]]
compound = "CC#CC(=O)N1CCC2CC21c1nc(-c2ccc(C(=O)Nc3ccccn3)cc2)c2c(N)nccn12 (centres unmarked) [Example 33]"
value = 94

[[record]]
compound = "C=CC(=O)N1CC2CCC2(c2nc(-c3ccc(C(=O)Nc4ccccn4)cc3)c3c(N)nccn23)C1 (centres unmarked) [Example 34]"
value = 66

[[record]]
compound = "C=CC(=O)N1CC2CCCC2C1c1nc(-c2ccc(Oc3ccccc3)cc2)c2c(N)nccn12 (centres unmarked) [Example 96]"
value = 3.1

[[record]]
compound = "CC#CC(=O)N1CC2CCCC2C1c1nc(-c2ccc(C(C)(O)c3ccccc3)cc2)c2c(N)nccn12 (centres unmarked) [Example 78]"
value = 18.4

[[record]]
compound = "C=CC(=O)N1CCC2CC21c1nc(-c2ccc(C(=O)Nc3ccccn3)cc2)c2c(N)nccn12 (centres unmarked) [Example 32]"
value = 57

[[record]]
compound = "CC#CC(=O)N1CC2CCCC2C1c1nc(-c2ccc(Oc3ccccc3)cc2)c2c(N)nccn12 (centres unmarked) [Example 97]"
value = 2.8

[[record]]
compound = "C=CC(=O)N1CC2(CC2)C[C@H]1c1nc(-c2ccc(Oc3ccccc3)cc2)c2c(N)nccn12 [Example 93]"
value = 3.6

[[record]]
compound = "C=CC(=O)N1C2C[C@@H](C1c1nc(-c3ccc(Oc4ccccc4)cc3)c3c(N)nccn13)N(C(C)C)C2 (some centres unmarked) [Example 109]"
value = 19

[[record]]
compound = "C=CC(=O)N1C(c2nc(-c3ccc(C(=O)Nc4cc(C)ccn4)cc3)c3c(N)nccn23)CC2CC21 (centres unmarked) [Example 64]"
value = 87

[[record]]
compound = "C=CC(=O)N1CC2CCC1(c1nc(-c3ccc(C(=O)Nc4ccccn4)cc3)c3c(N)nccn13)C2 (centres unmarked) [Example 122]"
value = 49

[[record]]
compound = "C=CC(=O)N1CC2CCCC2C1c1nc(-c2ccc(C(=O)Nc3cc(Cl)ccn3)cc2)c2c(N)nccn12 (centres unmarked) [Example 68]"
value = 5.3

[[record]]
compound = "CC#CC(=O)N1C(c2nc(-c3ccc(C(=O)Nc4cc(C(F)(F)F)ccn4)cc3)c3c(N)nccn23)CC2CC21 (centres unmarked) [Example 51]"
value = 54

[[record]]
compound = "C=CC(=O)N1CC2CCCC2C1c1nc(-c2ccc(C(C)(O)c3ccccc3)cc2)c2c(N)nccn12 (centres unmarked) [Example 77]"
value = 8.5

[[record]]
compound = "CN(C)C/C=C/C(=O)N1CC2(CC2)C[C@H]1c1nc(-c2ccc(C(=O)Nc3ccccn3)cc2)c2c(N)nccn12 [Example 112]"
value = 21

[[record]]
compound = "CC#CC(=O)N1C2CCC1(c1nc(-c3ccc(C(C)(O)c4ccccc4)cc3)c3c(N)nccn13)COC2 (centres unmarked) [Example 85]"
value = 9.4

[[record]]
compound = "CC#CC(=O)N1C(c2nc(-c3ccc(Oc4ccccc4)cc3)c3c(N)nccn23)CC2CC21 (centres unmarked) [Example 101]"
value = 77

[[record]]
compound = "C=CC(=O)N1C2C[C@@H](C1c1nc(-c3ccc(Oc4ccccc4)cc3)c3c(N)nccn13)N(C(C)=O)C2 (some centres unmarked) [Example 110]"
value = 36

